- assay comment: in vitro
- conditions: human, hela cells, % viability
observed property: viability at 28.5 h, 10 µM (%)
All answers are understood in %, so give the number only.

The molecule listed as Cc1csc(C(Cc2ccsc2)NC(=O)c2scnc2C)n1 (stereo not drawn) shows viability at 28.5 h, 10 µM equal to 106

The molecule listed as O=C1CC(N2CCN(Cc3ccc4c(c3)OCO4)CC2)C(=O)N1c1ccc(Cl)c(Cl)c1 (stereo not drawn) shows viability at 28.5 h, 10 µM equal to 99.4

The molecule listed as CCOC(=O)c1[nH]c2ccccc2c1NS(=O)(=O)c1ccc(NC(C)=O)cc1 shows viability at 28.5 h, 10 µM equal to 81.4

The molecule listed as Cc1ccccc1CSCC(=O)NCCN1CCOCC1 shows viability at 28.5 h, 10 µM equal to 103

The molecule listed as CC(=O)NC[C@H]1CN(c2ccc3c(c2)CCN(C(=O)Cc2ccccc2)CC3)C(=O)O1 shows viability at 28.5 h, 10 µM equal to 111

The molecule listed as C=C(C)Cn1c(SC(C)C)nnc1-c1ccccc1OC(F)(F)F shows viability at 28.5 h, 10 µM equal to 114

The molecule listed as COc1ccc(C(=O)N2CCc3ccccc32)c(OC)n1 shows viability at 28.5 h, 10 µM equal to 106

The molecule listed as COc1ccc(Cn2c(=O)[nH]n(-c3ccccc3)c2=O)cc1F shows viability at 28.5 h, 10 µM equal to 86.5

The molecule listed as CC(C)(C)S(=O)(=O)CC(N)=S shows viability at 28.5 h, 10 µM equal to 91.1

Each recorded value in this set is attributed to paper PMC12040169.
